These measurements were taken from ChEMBL document CHEMBL4257514.

Item-by-item account of IC50
target_system: Protein kinase C zeta type (Homo sapiens, UniProt Q05513)
Sequence (Q05513 whole entry, the tested form may be a part): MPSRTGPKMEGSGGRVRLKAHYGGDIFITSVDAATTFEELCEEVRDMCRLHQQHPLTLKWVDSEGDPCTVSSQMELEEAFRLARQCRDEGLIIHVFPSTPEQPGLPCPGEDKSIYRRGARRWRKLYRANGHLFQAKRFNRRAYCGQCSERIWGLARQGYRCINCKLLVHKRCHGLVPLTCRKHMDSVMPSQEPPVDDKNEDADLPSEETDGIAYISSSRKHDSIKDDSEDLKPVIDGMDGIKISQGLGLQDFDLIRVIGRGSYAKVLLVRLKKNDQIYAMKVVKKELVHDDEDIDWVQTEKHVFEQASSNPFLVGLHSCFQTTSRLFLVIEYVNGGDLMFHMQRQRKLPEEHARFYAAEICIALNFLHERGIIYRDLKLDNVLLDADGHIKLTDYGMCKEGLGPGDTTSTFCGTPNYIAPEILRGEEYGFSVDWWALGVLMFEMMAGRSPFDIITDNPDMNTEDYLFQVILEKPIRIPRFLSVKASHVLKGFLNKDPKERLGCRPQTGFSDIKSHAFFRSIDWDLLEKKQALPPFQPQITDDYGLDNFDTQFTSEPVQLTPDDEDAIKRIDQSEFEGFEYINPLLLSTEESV
method: Inhibition of recombinant GST-fused PKCzeta (unknown origin) expressed in HEK293 cells using myelin basic protein as substrate measured after 40 mins in presence of [gamma32P]ATP by phosphorimaging analysis
readout_kind: IC50 (nM)

                                   molecule  readout_unit  qualifying_sign  readout_value
0  Oc1ccc(C2=NN(c3cccc(Cl)c3)C(c3ccc(O)c(F)c3)C2)c(O)c1 (stereo unspecified)            nM                <            100
1  Oc1ccc(C2=NN(c3cccc(Cl)c3)C(c3cccc(Cl)c3)C2)cc1 (stereo unspecified)            nM                =            400
2  Oc1ccc(C2=NN(c3cccc(Cl)c3)C(c3ccc(Cl)cc3)C2)cc1 (stereo unspecified)            nM                <            100
3  Oc1ccc(C2=NN(c3ccc(Cl)cc3)C(c3cccc(Cl)c3)C2)cc1 (stereo unspecified)            nM                <            100
4  Oc1cccc(C2=NN(c3ccc(Cl)cc3)C(c3ccc(Cl)cc3)C2)c1 (stereo unspecified)            nM                =           6500
5  Oc1ccc(C2=NN(c3ccc(Cl)cc3)C(c3ccc(Cl)cc3)C2)c(O)c1 (stereo unspecified)            nM                =           4300
